Origin of the recorded values: patent US10208065B2

- experimentSummary: Solubility in simulated biological media (37° C., HPLC)
- Assay type: physicochemical
- studyConditions: simulated artificial gastric juice, 4 hours
- Description: Procedure: About 10 mg of amorphous free base was weighed and placed in a 2 mL glass vial. […] The mixture was filtered with a centrifuge tube (pore size of filter membrane: 0.45 μm), the filtrate was taken and the content of the compound of formula I therein was analyzed by HPLC. […]
Structures can show the parent of a compound that is named as a salt.
reportedMetric: Solubility (4 hours) (µg/mL)

CN1C(=O)COc2c1cnc1ccc(Sc3nnc4c(F)cc(-c5cnn(C)c5)cn34)cc21 [Crystal form I of phosphate]	135
CN1C(=O)COc2c1cnc1ccc(Sc3nnc4c(F)cc(-c5cnn(C)c5)cn34)cc21 [Crystal form I of free base]	19

1. CN1C(=O)COc2c1cnc1ccc(Sc3nnc4c(F)cc(-c5cnn(C)c5)cn34)cc21 [Crystal form III of mesylate]
2. CN1C(=O)COc2c1cnc1ccc(Sc3nnc4c(F)cc(-c5cnn(C)c5)cn34)cc21 [Amorphous free base]
Given the listed records, identify the one among 1 and 2 with higher Solubility (4 hours). Bench note: the answer is the label of the chosen record. 1
(1: 200 µg/mL, 2: 9 µg/mL)

1. CN1C(=O)COc2c1cnc1ccc(Sc3nnc4c(F)cc(-c5cnn(C)c5)cn34)cc21 [Crystal form III of the 1,5-naphthalenedisulfonate salt]
2. CN1C(=O)COc2c1cnc1ccc(Sc3nnc4c(F)cc(-c5cnn(C)c5)cn34)cc21 [Crystal form III of free base]
Could you tell me which of 1 and 2 has the lower Solubility (4 hours) reading? Could you answer with the label of the item you picked? 1
(1: 27 µg/mL, 2: 43 µg/mL)

###

- experimentSummary: Solubility in simulated biological media (37° C., HPLC)
- Format: physicochemical
- studyConditions: simulated artificial intestinal juice-satiety, 22 hours
Where a name gives a salt, the structure may show the parent alone.
reportedMetric: Solubility (22 hours) (mg/mL)

A. CN1C(=O)COc2c1cnc1ccc(Sc3nnc4c(F)cc(-c5cnn(C)c5)cn34)cc21 [Crystal form I of phosphate]
B. CN1C(=O)COc2c1cnc1ccc(Sc3nnc4c(F)cc(-c5cnn(C)c5)cn34)cc21 [Crystal form III of mesylate]
C. CN1C(=O)COc2c1cnc1ccc(Sc3nnc4c(F)cc(-c5cnn(C)c5)cn34)cc21 [Amorphous free base]
D. CN1C(=O)COc2c1cnc1ccc(Sc3nnc4c(F)cc(-c5cnn(C)c5)cn34)cc21 [Crystal form I of free base]
Order by Solubility (22 hours), ascending. The labels, placed in the requested order, form the answer. C, D, B, A

###

- experimentSummary: Solubility in simulated biological media (37° C., HPLC)
- Format: physicochemical
- studyConditions: simulated artificial intestinal juice-fasting, 22 hours
Counter-ions that a name gives are not always drawn.
reportedMetric: Solubility (22 hours) (µg/mL)

Recorded results for 4 compounds are shown here.
CN1C(=O)COc2c1cnc1ccc(Sc3nnc4c(F)cc(-c5cnn(C)c5)cn34)cc21 [Crystal form III of mesylate]	5
CN1C(=O)COc2c1cnc1ccc(Sc3nnc4c(F)cc(-c5cnn(C)c5)cn34)cc21 [Amorphous free base]	2
CN1C(=O)COc2c1cnc1ccc(Sc3nnc4c(F)cc(-c5cnn(C)c5)cn34)cc21 [Crystal form I of phosphate]	3
CN1C(=O)COc2c1cnc1ccc(Sc3nnc4c(F)cc(-c5cnn(C)c5)cn34)cc21 [Crystal form III of the 1,5-naphthalenedisulfonate salt]	5

1. CN1C(=O)COc2c1cnc1ccc(Sc3nnc4c(F)cc(-c5cnn(C)c5)cn34)cc21 [Crystal form III of free base]
2. CN1C(=O)COc2c1cnc1ccc(Sc3nnc4c(F)cc(-c5cnn(C)c5)cn34)cc21 [Crystal form I of free base]
Two entries are listed, 1 and 2 . Which one carries the higher Solubility (22 hours)? Answer with the label corresponding to your selection. 1

###

- experimentSummary: Solubility in simulated biological media (37° C., HPLC)
- Format: physicochemical
- studyConditions: simulated artificial intestinal juice-fasting, 4 hours
- Experimental: Procedure: About 10 mg of amorphous free base was weighed and placed in a 2 mL glass vial. […] The mixture was filtered with a centrifuge tube (pore size of filter membrane: 0.45 μm), the filtrate was taken and the content of the compound of formula I therein was analyzed by HPLC. […]
Where a name gives a salt, the structure may show the parent alone.
reportedMetric: Solubility (4 hours) (µg/mL)

CN1C(=O)COc2c1cnc1ccc(Sc3nnc4c(F)cc(-c5cnn(C)c5)cn34)cc21 [Crystal form III of free base]	4
CN1C(=O)COc2c1cnc1ccc(Sc3nnc4c(F)cc(-c5cnn(C)c5)cn34)cc21 [Amorphous free base]	2
CN1C(=O)COc2c1cnc1ccc(Sc3nnc4c(F)cc(-c5cnn(C)c5)cn34)cc21 [Crystal form I of phosphate]	4

I. CN1C(=O)COc2c1cnc1ccc(Sc3nnc4c(F)cc(-c5cnn(C)c5)cn34)cc21 [Crystal form III of mesylate]
II. CN1C(=O)COc2c1cnc1ccc(Sc3nnc4c(F)cc(-c5cnn(C)c5)cn34)cc21 [Crystal form I of free base]
III. CN1C(=O)COc2c1cnc1ccc(Sc3nnc4c(F)cc(-c5cnn(C)c5)cn34)cc21 [Crystal form III of the 1,5-naphthalenedisulfonate salt]
Rank items: key Solubility (4 hours), increasing. Please list the labels according to the requested order. II, I, III
(II: 1 µg/mL, I: 5 µg/mL, III: 10 µg/mL)
